Provide the recorded Ketorolac (%) for the entries that follow.
Experiment: Stability study of levorotatory enantiomer of compounds in solvent (MCT)
Format: physicochemical
Conditions: MCT solution, 60° C., Day 30
Note: state the figure and append the unit.

Request the reported Ketorolac (%) associated with CCOC(=O)OC(CC)OC(=O)[C@H]1CCn2c(C(=O)c3ccccc3)ccc21 (stereo partly drawn) [N15(S)]
0.35%

Would you kindly repeat that for CC(C)OC(=O)OC(C)OC(=O)[C@H]1CCn2c(C(=O)c3ccccc3)ccc21 (stereo partly drawn) [N2(S)] ?
0.65%

Follow-up entry: CCC(OC(=O)OC(C)C)OC(=O)[C@H]1CCn2c(C(=O)c3ccccc3)ccc21 (stereo partly drawn) [N16(S)]
0.24%

Next record, please: CCOC(=O)OC(C)OC(=O)[C@H]1CCn2c(C(=O)c3ccccc3)ccc21 (stereo partly drawn) [N12(S)]
0.41%
